pIC50: −log10 of the molar value.
Here we gather pIC50 data for UniProt P28845 reported by several publications.
quantity: pIC50

Solved entries:
* O=C1N=C(NC2CCCC2)SC1c1ccccc1 (centres unmarked) | 5.96
* O=C1N=C(NC2CCCC2)SC1c1ccc(Br)cc1 (centres unmarked) | 6.74
* O=C1N=C(NC2CCCC2)SC12CCC2 | 5.81
* CCC1SC(NC23CC4CC(CC(C4)C2)C3)=NC1=O (centres unmarked) | 5.26
* O=C1N=C(NC23CC4CC(CC(C4)C2)C3)SC12CCC2 | 5.48

(1) CC(C)C1=C(O)C(=O)C2=CC3=C(CO)C(=O)CC[C@@]3(C)CC[C@@]21C
(2) CC1(C)C(=O)C=Cc2c1ccc1c2C(=O)C(=O)c2c(CO)coc2-1
// returns 1 or 2 , whichever has the lower pIC50 State the label of the item chosen.
1
(1: 5.21, 2: 6.07)

(a) CCCC1SC(NC2CCCC2)=NC1=O (centres unmarked)
(b) CC1(C)SC(NC23CC4CC(CC(C4)C2)C3)=NC1=O
Sorting by pIC50 in descending order, would a or b appear first? State the label of the item chosen.
a
